The next entries give measured pIC50 for Rat Intestinal SUCRASE (Rattus norvegicus, UniProt P23739).
Just so you know, pIC50 here is -log10 of the concentration in molar units; reply with that number alone.

Query: Determine from records and report pIC50 for Cc1ncc(CO)c(CO)c1O
Reply: 2.72

Query: Write down pIC50 measured for item Cc1ncc(CO)c(C=O)c1O
Reply: 2.72

Query: Provide only the value of recorded pIC50 for Cc1ncc(CO)c(CN)c1O
Reply: 2.68
